Test system: A498 renal
Test: NCI tumour cell line growth inhibition, 48 h
MEASUREMENT NAME: TGI

- MOLECULE: "O=C1C(NCCO)=C(N2CC2)C(=O)C(NCCO)=C1N1CC1"
  RESULT: "> 100 µM"
- MOLECULE: "CC(SC1=CC(=O)c2c(Cl)ccc(O)c2C1=O)C(=O)O (stereo not drawn)"
  RESULT: "> 100 µM"
- MOLECULE: "CC(=O)c1c2c(cc3c1CC1(Cc4cc5c(cc4C1)CCC5)C3)CCC2"
  RESULT: "> 100 µM"
